// data source = the GenesisPotency data set

Assay: Rab2 wildtype GTP-binding inhibitors, dose response, biochemical, GST-Rab2 beads, Bodipy-FL-GTP, flow cytometry, multiplex (AID 1337)
The campaign covered roughly 1,300 compounds. About 25 (2%) were called active. The list is a sample of the results.
OBSERVABLE: outcome

Task item: Form field: reported outcome of "COc1ccc(-c2nnc(CSc3nc4ccccc4c(=O)n3C)o2)cc1OC"
Reply: inactive

Task item: Can you share its outcome? I mean this molecule: "CN(C)S(=O)(=O)c1ccc(C(=O)NNc2nc(-c3ccccc3)c3cc(Br)ccc3n2)cc1"
Reply: inactive

Task item: Record request: outcome value, item "CC(C)c1nc2oc3c(=O)[nH]cnc3c2c2c1CCC2"
Reply: inactive

Task item: Any idea what outcome was measured for "COc1ccc2o/c(=N/NC(=O)c3cccs3)c(C(N)=O)cc2c1" ?
Reply: inactive

Task item: Name the recorded outcome for "Cc1nn2c(N)csc2nc1=O" .
Reply: inactive

Task item: Need outcome of "COc1ccc(CC(=O)Nc2ccc(C(=O)Nc3nccs3)cc2)cc1OC" , thanks.
Reply: inactive

Task item: GET /values?readout=outcome&item= "Cn1c(SCCOc2ccccc2F)nc2ccccc2c1=O"
Reply: inactive

Task item: Which outcome is reported for this molecule? "COc1cc2[nH]c(=S)nc(NCCc3ccc(C)cc3)c2cc1OC"
Reply: inactive

Task item: What does the data say about its outcome? Entry: "COc1ccccc1CCNCc1ccc(C(=O)O)s1"
Reply: inactive

Task item: outcome for "COc1ccccc1OCCn1cc(C(=O)O)c2cccc(Cl)c21" ?
Reply: inactive

Others:
Task item: Look at this molecule and give its reported outcome. "Cc1cc(-c2n[nH]c(=S)n2/N=C/c2cc([N+](=O)[O-])ccc2Cl)n[nH]1"
Reply: inactive

Task item: Requested read-out: outcome. Entry: "COc1ccc(-c2nnc(SCC(=O)c3cccs3)o2)cc1"
Reply: inactive

Task item: For COc1cc(C)c2c(c1C=O)Oc1c(c(C)c(O)c3c1C(O)OC3=O)OC2=O (centres undefined) , what is its reported outcome?
Reply: inactive

Task item: I am curious: what outcome value has been reported for "N#C/C(=C/c1ccc(O)c([N+](=O)[O-])c1)C(=O)Nc1ccccc1" ?
Reply: inactive
